Test system: small diameter cerebral arteries constricted by 60 mmol/L K+
Experiment: tissue or blood
Assay type: cell-based, rabbit
Details: Oryctolagus cuniculus, 120 h
Where a name gives a salt, the structure may show the parent alone.

compound	valueUnit	IC50
COc1ccc([C@@H]2Sc3ccccc3N(CCN(C)C)C(=O)[C@@H]2OC(C)=O)cc1 (relative stereo) [diltiazem, monohydrochloride]	µM	16.9
